Assay: Plasma aspirin levels following oral aspirin
Format: in vivo
Conditions: human, oral aspirin 162 mg, read-out: Peak plasma aspirin level
quantityMeasured: Cmax (ng/mL)

smilesNotation	quantityMeasured	measureUnit	resultValue
CC(=O)Oc1ccccc1C(=O)O	Cmax	ng/mL	1300

----------
Experiment: Plasma aspirin levels following oral aspirin
Format: in vivo
Details: human, oral aspirin 75 mg, read-out: Levels following oral aspirin

compound	Cmax
CC(=O)Oc1ccccc1C(=O)O [aspirin, acetyl salicylic acid]	1000 to 2000 ng/mL

----------
Test: Plasma aspirin and salicylate after dermal aspirin (NICI-GCMS), Example 4
Assay type: in vivo, human
Conditions: human, plasma, topical or ocular; dermal aspirin 750 mg, single application; read-out: Plasma aspirin, about 3 h (peak)

smilesNotation	measureUnit	Cmax
CC(=O)Oc1ccccc1C(=O)O	ng/mL	237
